I'd be grateful if you could share measured pKd for these entries.
- assay_system: RagB from ATCC 33277, mature part, C-terminal His6-tag, expressed in E. coli (Porphyromonas gingivalis ATCC 33277)
- protocol: MST
Give bare numbers, as −log10 of the molar value.

Please state pKd for every binder in the list that follows.
1. NIFKKNVGFKK [P4 peptide (unlabelled)]
2. KATAEALKKALEEAGAEVELK [P21 peptide (21 residues from the C-terminus of ribosomal protein L7)]

1. 4.15
2. 3.15
